# SYSTEM_UNDER_TEST: RICK (Homo sapiens, UniProt O43353)
# Sequence (O43353 whole entry): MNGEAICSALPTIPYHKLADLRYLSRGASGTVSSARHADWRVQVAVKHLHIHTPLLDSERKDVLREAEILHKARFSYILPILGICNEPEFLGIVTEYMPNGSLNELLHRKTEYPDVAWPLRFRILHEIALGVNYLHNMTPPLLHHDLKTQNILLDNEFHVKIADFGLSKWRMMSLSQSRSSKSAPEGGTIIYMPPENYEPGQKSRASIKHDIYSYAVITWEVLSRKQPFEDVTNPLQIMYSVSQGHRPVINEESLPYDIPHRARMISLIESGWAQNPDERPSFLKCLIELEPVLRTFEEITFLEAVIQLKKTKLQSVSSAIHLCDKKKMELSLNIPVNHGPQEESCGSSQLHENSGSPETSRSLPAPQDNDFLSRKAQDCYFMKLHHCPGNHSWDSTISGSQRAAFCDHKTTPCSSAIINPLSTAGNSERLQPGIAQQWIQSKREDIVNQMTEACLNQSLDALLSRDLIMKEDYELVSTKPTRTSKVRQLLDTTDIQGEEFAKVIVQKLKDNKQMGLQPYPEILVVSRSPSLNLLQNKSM
IC50 values for the compounds below.
QUANTITY: IC50 (nM)

INSERT INTO assay_data (compound, quantity, numeric_result) VALUES
  ('COc1cc2ncnc(Nc3cccc(Br)c3)c2cc1OC [Compound E]', 'IC50', 500),
  ('Cn1c(=O)c(-c2ccccc2)cc2cnc(Nc3ccncc3)nc21 [Compound B]', 'IC50', 500),
  ('CN1CCN(CCCNc2ncc3cc(-c4c(Cl)cccc4Cl)c(=O)n(C)c3n2)CC1 [Compound C]', 'IC50', 1000),
  ('CCOc1cc2ncnc(Nc3cccc(Br)c3)c2cc1OCC [Compound D]', 'IC50', 500),
  ('Cn1c(=O)c(-c2c(Cl)cccc2Cl)cc2cnc(NCCCN3CCOCC3)nc21 [Compound A]', 'IC50', 1000);
